test: Antiproliferative activity against mouse B16F10 cells after 48 hrs by MTT assay; type: functional, cell-based; settings: B16-F10, 48 h
Under this convention, met denotes IC50 strictly below 1 µg/mL and not met denotes IC50 at or above 1 µg/mL.

*Q* Given the entry `O=C(/C=C/c1ccc(O)c(O)c1)N1CCN(c2cccc(C(F)(F)F)c2)CC1` , would its reported IC50 be below 1 µg/mL?
*A* not met

*Q* Another molecule to check: `O=C(/C=C/c1ccc(O)c(O)c1)N1CCN(c2ccc(Cl)c(Cl)c2)CC1`
*A* not met

*Q* Another molecule to check: `COc1cccc(N2CCN(C(=O)/C=C/c3ccc(O)c(O)c3)CC2)c1`
*A* not met

*Q* Another molecule to check: `O=C(/C=C/c1ccc(O)c(O)c1)N1CCN(c2ccc(F)cc2)CC1`
*A* not met

*Q* Another molecule to check: `O=C(/C=C/c1ccc(O)c(O)c1)N1CCN(c2ccc([N+](=O)[O-])cc2)CC1`
*A* not met

***
*Q* Given the entry `O=C(/C=C/c1ccc(O)c(O)c1)N1CCN(C(c2ccccc2)c2ccccc2)CC1` , would its reported IC50 be below 1 µg/mL?
*A* met

*Q* Another molecule to check: `O=C(/C=C/c1ccc(O)c(O)c1)N1CCN(c2ccccc2F)CC1`
*A* not met

*Q* Another molecule to check: `Cc1ccc(N2CCN(C(=O)/C=C/c3ccc(O)c(O)c3)CC2)c(C)c1`
*A* not met

*Q* Another molecule to check: `COc1ccc(/C=C\c2cc(OC)c(OC)c(OC)c2)cc1O`
*A* met

*Q* Another molecule to check: `COc1ccccc1N1CCN(C(=O)/C=C/c2ccc(O)c(O)c2)CC1`
*A* not met

*Q* Another molecule to check: O=C(/C=C/c1ccc(O)c(O)c1)N1CCN(C(c2ccccc2)c2ccc(Cl)cc2)CC1 (stereo unspecified)
*A* met

// provenance: ChEMBL document CHEMBL3351725
